Recorded measurements of Percent Control, one per entry
system: MST2; construct: gene STK3; conditions: Compound Concentration (nM):1000;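 further: KINOMEscan scanMAX binding as percent activity remaining versus control; lower means stronger binding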
Field: numeric (%). Do not append units.

Some solved cases for reference:
Compound: NS(=O)(=O)c1ccc(N/N=C2\C(=O)Nc3ccc(C(=O)NCc4ccncc4)cc32)cc1 [GW300657X]
Output unit: %
Percent Control: 45

Compound: COc1cc(N2CCN(C(C)C)CC2)ccc1Nc1nc(Nc2ccc(F)cc2C(=O)NC[C@@H](O)CO)c2cc[nH]c2n1 [GSK1392956A]
Output unit: %
Percent Control: 92

Compound: COc1cc(/C=N/Nc2ncnc3[nH]ncc23)ccc1O [GW578748X]
Output unit: %
Percent Control: 86

Compound: COc1ccc2cc(-c3c(-c4ccncc4)nc(-c4ccc(S(C)(=O)=O)cc4C)n3C)ccc2c1
Output unit: %
Percent Control: 60

Compound: COc1ccc(COc2ccc(Cc3cnc(N)nc3N)cc2OC)cc1 [GW632580X]
Output unit: %
Percent Control: 73

[in] Entry under review: O=C1Nc2ccc(C(=O)c3ccco3)cc2C1=Cc1cc(Cl)c(O)c(Cl)c1 [GW406108X] . Reported Percent Control?
[out] 0

[in] Entry under review: Cl.O=S1CCN(Cc2ccc(-c3ccc4ncnc(Nc5ccc(OCc6ccccc6)c(F)c5)c4c3)o2)CC1 [GW576924A] . Reported Percent Control?
[out] 100

[in] Entry under review: `NS(=O)(=O)c1ccc(N/N=C2\C(=O)Nc3ccc(-c4cnco4)cc32)cc1` . Reported Percent Control?
[out] 40
